- EXPERIMENT NOTES: Half life in ovariectomized rat plasma at 10 mg/kg, po
- Assay type: ADME, organism-based
- Design: dose 10 mg/kg, route oral
- EXPERIMENTAL CONTEXT: female

{"columns": ["GIVEN SMILES", "UNIT LABEL", "half-life"],
 "data": [
  ["NCC1CCN(c2nccc(-c3ccc4ccccc4c3)n2)CC1", "h", 5.6]
]}

###

- EXPERIMENT NOTES: Oral bioavailability in ovariectomized rat at 10 mg/kg
- Assay type: ADME, organism-based
- EXPERIMENTAL CONTEXT: female, in vivo
REPORTED PROPERTY: bioavailability (%)

{"columns": ["GIVEN SMILES", "OBS VALUE"],
 "data": [
  ["NCC1CCN(c2nccc(-c3ccc4ccccc4c3)n2)CC1", 78]
]}

Sourced from ChEMBL document CHEMBL1156130
